- Assay target: ecLacI (Escherichia coli)
- Sequence (P03023 whole entry): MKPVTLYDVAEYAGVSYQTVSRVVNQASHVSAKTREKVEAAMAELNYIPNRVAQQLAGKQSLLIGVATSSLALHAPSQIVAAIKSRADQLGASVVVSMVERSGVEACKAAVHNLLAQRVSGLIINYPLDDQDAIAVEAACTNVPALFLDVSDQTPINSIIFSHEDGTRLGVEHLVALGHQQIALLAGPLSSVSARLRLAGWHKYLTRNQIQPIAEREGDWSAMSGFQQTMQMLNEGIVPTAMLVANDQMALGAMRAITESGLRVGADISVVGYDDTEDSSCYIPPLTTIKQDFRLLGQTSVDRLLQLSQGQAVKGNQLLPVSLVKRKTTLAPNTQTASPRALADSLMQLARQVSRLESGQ
- Protocol description: isothermal titration calorimetry
- Format: binding
Quantity kind: Kd (µM)
Unit µM implied. Number only.

Problem: Look up Kd for this compound: CO[C@@H]1O[C@H](CO)[C@H](O)[C@H](O)[C@H]1O [BMDG]
Solution: 306

----------
- Assay target: ecLacI (Escherichia coli)
- Protocol description: isothermal titration calorimetry
- Format: binding
- Study conditions: 25 °C; 20 mM HEPES, 150 mM NaCl, 2% glycerol, pH 8; 1:1 model
Quantity kind: Kd (mM)
Unit mM implied. Number only.

Problem: Look up Kd for this compound: C[C@H]1OC(O)[C@H](O)[C@@H](O)[C@H]1O (stereo partly shown)
Solution: 37

The reported numbers originate from paper doi:10.1101/2025.03.23.644840v2.
